Overview of reported CDC EC50, human serum, CHO-CLDN18.2 across a group of binders:
# System Name: human Claudin 18.2 (CLDN18.2) (human, UniProt P56856-2 1-261)
# Method Description: cell-based or functional assay
API: value field is a number in nM; no unit string.

Below: 2 binders and their reported CDC EC50, human serum, CHO-CLDN18.2.
413H9F8-H2L1 (antibody, V domains shown, humanized IgG; constant regions not specified) VH: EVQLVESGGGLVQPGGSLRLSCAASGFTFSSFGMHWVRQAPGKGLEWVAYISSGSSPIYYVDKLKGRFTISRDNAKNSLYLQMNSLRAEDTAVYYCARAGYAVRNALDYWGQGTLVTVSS VL: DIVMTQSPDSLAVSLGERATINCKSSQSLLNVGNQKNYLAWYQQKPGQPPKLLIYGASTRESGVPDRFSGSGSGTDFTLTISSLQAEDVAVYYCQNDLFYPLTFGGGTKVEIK : 1.06
413H9F8-VL-S32V (antibody, human IgG1, kappa, V domains shown, chimeric human IgG1, PTM site removed; also called 413H9F8-VL-32V; 413H9F8-VL-532V) VH: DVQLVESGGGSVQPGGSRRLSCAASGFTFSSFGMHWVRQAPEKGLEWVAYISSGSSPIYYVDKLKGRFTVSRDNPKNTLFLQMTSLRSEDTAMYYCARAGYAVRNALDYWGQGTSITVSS VL: DIVMTQSPSSLSVSVGEKVTLSCKSSQSLLNVGNQKNYLAWYQQKTGQPPKLLIYGASTRESGVPDRFIGSGSGTDFTLTISSVQAEDLAVYFCQNDLFYPLTFGAGTKLELKR : 0.76

Q) Could you share which CDC EC50, human serum, CHO-CLDN18.2 value was measured for 364D1A7-H1L1 (antibody, V domains shown, humanized IgG; constant regions not specified) VH: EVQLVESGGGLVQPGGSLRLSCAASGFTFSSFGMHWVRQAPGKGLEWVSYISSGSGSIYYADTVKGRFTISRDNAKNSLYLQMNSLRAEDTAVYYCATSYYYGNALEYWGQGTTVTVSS VL: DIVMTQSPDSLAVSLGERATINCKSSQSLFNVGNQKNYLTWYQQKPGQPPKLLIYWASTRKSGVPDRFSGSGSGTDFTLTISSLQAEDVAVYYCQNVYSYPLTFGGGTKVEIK ?
A) 1.48

Q) And the next one, 413H9F8-H1L3 (antibody, V domains shown, humanized IgG; constant regions not specified) VH: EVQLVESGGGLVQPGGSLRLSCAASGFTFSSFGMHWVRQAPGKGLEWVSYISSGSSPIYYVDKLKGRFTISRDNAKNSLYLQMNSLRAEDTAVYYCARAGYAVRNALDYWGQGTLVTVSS VL: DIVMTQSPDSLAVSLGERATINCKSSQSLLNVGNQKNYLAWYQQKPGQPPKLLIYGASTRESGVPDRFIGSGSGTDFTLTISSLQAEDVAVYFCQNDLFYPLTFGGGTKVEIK ?
A) 1.07
